- Test system: Candida albicans A9540
- assaySummary: MIC, two-fold agar dilution, C. albicans A9540
- Type: cell-based
- protocolConditions: Candida albicans A9540; YMA pH 7.0, 28° C., 40 hours; read-out: MIC
Listing: MIC of selected compounds
measurementKind: MIC

{"columns": ["compound", "measurementKind", "valueReported"],
 "data": [
  ["COc1cc(O)c2c(c1)C(=O)c1c(cc3c(c1O)-c1c(cc(C)c(C(=O)N[C@H](C)C(=O)O)c1O)[C@H](O[C@@H]1O[C@H](C)[C@H](N(C)N=O)[C@H](O[C@@H]4OC[C@@H](O)[C@H](O)[C@H]4O)[C@H]1O)[C@H]3O)C2=O [KHM-6, 4'-N-Nitrosopradimicin A]", "MIC", "6.3 µg/mL"],
  ["COc1cc(O)c2c(c1)C(=O)c1c(cc3c(c1O)-c1c(cc(C)c(C(=O)N[C@H](C)C(=O)O)c1O)[C@H](O[C@@H]1O[C@H](C)[C@H](NC(=N)N[N+](=O)[O-])[C@H](O[C@@H]4OC[C@@H](O)[C@H](O)[C@H]4O)[C@H]1O)[C@H]3O)C2=O [KHM-7, 4'-Nitroquanidinopradimicin C]", "MIC", "3.1 µg/mL"],
  ["COc1cc(O)c2c(c1)C(=O)c1c(cc3c(c1O)-c1c(cc(C)c(C(=O)N[C@H](CO)C(=O)O)c1O)[C@H](O[C@@H]1O[C@H](C)[C@H](N)[C@H](O[C@@H]4OC[C@@H](O)[C@H](O)[C@H]4O)[C@H]1O)[C@H]3O)C2=O [Pradimicin FA-2, reference compound]", "MIC", "6.3 µg/mL"]
]}

====

A set of compounds tested on Candida tropicalis 85-8, with measured MIC:

{"columns": ["compound", "measuredOn", "qualifierSign", "MIC / µg/mL"],
 "data": [
  ["COc1cc(O)c2c(c1)C(=O)c1c(cc3c(c1O)-c1c(cc(C)c(C(=O)N[C@H](C)C(=O)O)c1O)[C@H](O[C@@H]1O[C@H](C)[C@H](N(C)C#N)[C@H](O[C@@H]4OC[C@@H](O)[C@H](O)[C@H]4O)[C@H]1O)[C@H]3O)C2=O [KHM-1, 4'-N-Cyanogradimicin A]", "Candida tropicalis 85-8", "=", 12.5],
  ["COc1cc(O)c2c(c1)C(=O)c1c(cc3c(c1O)-c1c(cc(C)c(C(=O)N[C@H](C)C(=O)O)c1O)[C@H](O[C@@H]1O[C@H](C)[C@H](NC(=N)N)[C@H](O[C@@H]4OC[C@@H](O)[C@H](O)[C@H]4O)[C@H]1O)[C@H]3O)C2=O [KHM-8, 4'-Guanidinopradimicin C]", "Candida tropicalis 85-8", ">", 100]
]}

====

Listing: solubility of selected molecules
- assaySummary: Water solubility at neutral pH in PBS containing Ca^2+/Mg^2+
- Type: physicochemical
- protocolConditions: pbs with ca2+/mg2+; Table 3; water-solubility at neutral pH in phosphate buffered saline containing Ca^2+/Mg^2+
measurementKind: solubility

{"columns": ["smilesRecord", "valueReported"],
 "data": [
  ["COc1cc(O)c2c(c1)C(=O)c1c(cc3c(c1O)-c1c(cc(C)c(C(=O)N[C@H](C)C(=O)O)c1O)[C@H](O[C@@H]1O[C@H](C)[C@H](NC#N)[C@H](O[C@@H]4OC[C@@H](O)[C@H](O)[C@H]4O)[C@H]1O)[C@H]3O)C2=O", "> 20 mg/mL"],
  ["COc1cc(O)c2c(c1)C(=O)c1c(cc3c(c1O)-c1c(cc(C)c(C(=O)N[C@H](C)C(=O)O)c1O)[C@H](O[C@@H]1O[C@H](C)[C@H](NC(=N)N[N+](=O)[O-])[C@H](O[C@@H]4OC[C@@H](O)[C@H](O)[C@H]4O)[C@H]1O)[C@H]3O)C2=O", "> 20 mg/mL"],
  ["COc1cc(O)c2c(c1)C(=O)c1c(cc3c(c1O)-c1c(cc(C)c(C(=O)N[C@H](CO)C(=O)O)c1O)[C@H](O[C@@H]1O[C@H](C)[C@H](NC#N)[C@H](O[C@@H]4OC[C@@H](O)[C@H](O)[C@H]4O)[C@H]1O)[C@H]3O)C2=O", "> 20 mg/mL"]
]}
